assay-protocol: Human HepG2 cell viability assay in 384 well format
Assay type: toxicity, cell-based
Design: dose 125 nL, time 70.5 hour; concentration not given beside the values
test-settings: HepG2 cells, read-out: Inhibition
Listed below: cytotoxicity at 70.5 h values for each entry.
Report the value in % with no unit label.

Reference set (3 entries):
INSERT INTO measurements (compound, endpoint_unit, result_number) VALUES
  ('Cn1cc(C2CCCN2C(=O)c2ccc(Br)o2)cn1 (stereo unspecified)', '%', -10.2),
  ('CC(C)C(=O)N1CCCC2(CC(C(=O)NCc3cccnc3)=NO2)C1 (stereo unspecified)', '%', -2.66),
  ('O=C1NC(c2ccccc2)=N[C@@]12CC[C@@H]1CN(Cc3ccccc3)C[C@@H]12', '%', 0.309);

IN: Would you kindly share the measured cytotoxicity at 70.5 h for "O=C(NCC1CC1)c1cc(Cl)c2c(c1)OCCCO2" ?
OUT: 8.95

IN: Would you kindly share the measured cytotoxicity at 70.5 h for O=C(NCC1CCOC1)c1csc(-c2ccco2)n1 (stereo unspecified) ?
OUT: 21.2

IN: Would you kindly share the measured cytotoxicity at 70.5 h for Cc1oncc1C(=O)N1CCOCC2(CCN(c3ccccn3)C2)C1 (stereo unspecified) ?
OUT: -3.11

IN: Would you kindly share the measured cytotoxicity at 70.5 h for NCC1[C@H]2CN(CCc3ccccc3)C[C@@H]12 (stereo partly specified) ?
OUT: 43.3

IN: Would you kindly share the measured cytotoxicity at 70.5 h for "CCn1c(CN(C)C)nnc1C1CCN(Cc2ccc(Cl)cc2)CC1" ?
OUT: 0.347

IN: Would you kindly share the measured cytotoxicity at 70.5 h for "CCCc1nc(CN2CCCN(Cc3nccn3C)CC2)no1" ?
OUT: -14.9

IN: Would you kindly share the measured cytotoxicity at 70.5 h for "COCCN1CCN(S(=O)(=O)C2CC2)Cc2ccc(C)nc21" ?
OUT: -5.69

IN: Would you kindly share the measured cytotoxicity at 70.5 h for "Cc1cnc(-c2nc(NC3CC3)ncc2-c2onc(C)c2C)cn1" ?
OUT: -4.72

IN: Would you kindly share the measured cytotoxicity at 70.5 h for CC(O)c1cccc(N2CCC3(CCC(=O)N(C4CCCC4)C3)CC2)n1 (stereo unspecified) ?
OUT: -2.86

IN: Would you kindly share the measured cytotoxicity at 70.5 h for CN1CC(Nc2nc3c(cnn3C(C)(C)C)c(=O)[nH]2)CCC1=O (stereo unspecified) ?
OUT: -2.42

IN: Would you kindly share the measured cytotoxicity at 70.5 h for "Cc1nc(CN[C@H]2CCCN(C(=O)OC(C)(C)C)C2)cs1" ?
OUT: -3.34

IN: Would you kindly share the measured cytotoxicity at 70.5 h for "c1cc(CN2CC[C@H]3CO[C@H](CN4CCOCC4)[C@H]3C2)cs1" ?
OUT: -11.2

IN: Would you kindly share the measured cytotoxicity at 70.5 h for Cc1cnn(C2CCCN(C(=O)c3ccc(O)nc3)C2)c1 (stereo unspecified) ?
OUT: -12.4

IN: Would you kindly share the measured cytotoxicity at 70.5 h for Cc1ccc(OCC2CCCN(C(=O)CN3CCOCC3)C2)cc1 (stereo unspecified) ?
OUT: 2.89

IN: Would you kindly share the measured cytotoxicity at 70.5 h for "COc1ccccc1OCC(=O)NS(=O)(=O)c1ccc(C)s1" ?
OUT: -4.78

IN: Would you kindly share the measured cytotoxicity at 70.5 h for "Cc1cc(C(=O)N(C)Cc2cnn(C)c2)c(NC(=O)C(C)(C)C)s1" ?
OUT: -12.1

IN: Would you kindly share the measured cytotoxicity at 70.5 h for COc1ncccc1C(=O)N1CCCC1c1nc(-c2ccccc2)n[nH]1 (stereo unspecified) ?
OUT: -0.047
